# target_entity: GPR84 (Homo sapiens)
# Sequence (Q9NQS5 whole entry): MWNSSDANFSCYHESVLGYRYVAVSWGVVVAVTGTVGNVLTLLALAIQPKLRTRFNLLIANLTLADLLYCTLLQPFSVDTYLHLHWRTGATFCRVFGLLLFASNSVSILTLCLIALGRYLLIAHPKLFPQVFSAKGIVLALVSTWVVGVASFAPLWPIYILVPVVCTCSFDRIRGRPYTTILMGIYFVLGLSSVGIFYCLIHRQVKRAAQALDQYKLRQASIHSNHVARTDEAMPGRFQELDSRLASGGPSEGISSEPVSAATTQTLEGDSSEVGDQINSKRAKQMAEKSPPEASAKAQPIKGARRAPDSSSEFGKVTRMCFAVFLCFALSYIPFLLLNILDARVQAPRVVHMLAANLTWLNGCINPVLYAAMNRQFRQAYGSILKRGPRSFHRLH
# assay_name: Human neutrophil migration inhibition assay, Embelin as chemotactic agent
# condition_notes: human neutrophils, Embelin as chemotactic agent; read-out: Embelin-induced neutrophil chemotaxis IC50
measurement_name: IC50 (nM)

# molecule, IC50, nM
records = [
    ("O=c1nc(OC[C@@H]2COCCO2)cc2n1CCc1cc(CCCNc3ccccc3)ccc1-2", 9.3),
]

P: O=c1nc(OCC2COCCO2)cc2n1CCc1cc(OCc3noc(C4CC4)n3)ccc1-2 (stereo not drawn)
Q: O=c1nc(OCC2COCCO2)cc2n1CCc1cc(C#CCNc3ccccc3)ccc1-2 (stereo not drawn)
Q: Between the entries labelled P and Q , which has a larger IC50 value on record? In your reply, give the label of the chosen option.
Ans: P
